Target: CDK12 (nuclear staining in CAL-120 cells) (Homo sapiens, UniProt Q9NYV4)
Construct: endogenous in cells; host or cells: CAL-120 human breast cancer cells (DSMZ ACC 459)
Sequence (Q9NYV4 whole entry): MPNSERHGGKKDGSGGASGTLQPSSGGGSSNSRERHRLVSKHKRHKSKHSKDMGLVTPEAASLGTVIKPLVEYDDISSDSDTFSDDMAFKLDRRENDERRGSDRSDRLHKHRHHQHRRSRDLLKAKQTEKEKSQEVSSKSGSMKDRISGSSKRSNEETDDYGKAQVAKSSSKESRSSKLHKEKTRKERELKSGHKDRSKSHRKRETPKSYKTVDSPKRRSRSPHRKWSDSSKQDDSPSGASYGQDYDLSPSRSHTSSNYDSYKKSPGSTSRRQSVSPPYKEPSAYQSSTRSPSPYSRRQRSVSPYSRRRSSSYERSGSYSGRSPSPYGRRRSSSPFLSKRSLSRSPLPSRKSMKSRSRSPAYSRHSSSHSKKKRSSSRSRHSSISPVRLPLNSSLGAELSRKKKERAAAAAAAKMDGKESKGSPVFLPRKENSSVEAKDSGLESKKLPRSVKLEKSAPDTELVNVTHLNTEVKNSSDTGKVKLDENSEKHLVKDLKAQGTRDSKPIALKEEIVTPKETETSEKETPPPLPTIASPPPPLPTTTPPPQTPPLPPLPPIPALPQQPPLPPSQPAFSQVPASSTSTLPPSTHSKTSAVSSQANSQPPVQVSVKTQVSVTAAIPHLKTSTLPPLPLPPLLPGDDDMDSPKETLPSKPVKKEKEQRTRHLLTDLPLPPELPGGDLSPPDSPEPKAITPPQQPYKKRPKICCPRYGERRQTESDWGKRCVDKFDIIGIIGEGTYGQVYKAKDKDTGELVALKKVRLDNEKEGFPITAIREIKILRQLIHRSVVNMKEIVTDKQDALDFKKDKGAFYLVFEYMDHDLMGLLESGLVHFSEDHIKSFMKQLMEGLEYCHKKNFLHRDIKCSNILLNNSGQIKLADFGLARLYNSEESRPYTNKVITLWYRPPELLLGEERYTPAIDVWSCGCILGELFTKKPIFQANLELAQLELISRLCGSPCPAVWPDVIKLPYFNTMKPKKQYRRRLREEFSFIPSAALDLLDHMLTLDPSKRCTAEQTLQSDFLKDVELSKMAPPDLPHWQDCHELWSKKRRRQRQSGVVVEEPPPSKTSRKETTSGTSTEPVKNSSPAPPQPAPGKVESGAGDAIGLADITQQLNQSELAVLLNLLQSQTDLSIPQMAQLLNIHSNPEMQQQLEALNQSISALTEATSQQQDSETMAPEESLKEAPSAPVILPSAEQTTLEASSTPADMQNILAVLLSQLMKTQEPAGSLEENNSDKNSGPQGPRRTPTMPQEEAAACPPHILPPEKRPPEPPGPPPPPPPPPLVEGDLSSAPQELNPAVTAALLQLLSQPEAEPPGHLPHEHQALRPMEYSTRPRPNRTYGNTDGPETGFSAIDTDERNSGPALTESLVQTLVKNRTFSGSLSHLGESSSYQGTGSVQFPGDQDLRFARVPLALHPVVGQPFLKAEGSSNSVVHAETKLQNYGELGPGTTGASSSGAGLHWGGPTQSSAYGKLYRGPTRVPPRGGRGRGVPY
Sequence (O75909 whole entry partner): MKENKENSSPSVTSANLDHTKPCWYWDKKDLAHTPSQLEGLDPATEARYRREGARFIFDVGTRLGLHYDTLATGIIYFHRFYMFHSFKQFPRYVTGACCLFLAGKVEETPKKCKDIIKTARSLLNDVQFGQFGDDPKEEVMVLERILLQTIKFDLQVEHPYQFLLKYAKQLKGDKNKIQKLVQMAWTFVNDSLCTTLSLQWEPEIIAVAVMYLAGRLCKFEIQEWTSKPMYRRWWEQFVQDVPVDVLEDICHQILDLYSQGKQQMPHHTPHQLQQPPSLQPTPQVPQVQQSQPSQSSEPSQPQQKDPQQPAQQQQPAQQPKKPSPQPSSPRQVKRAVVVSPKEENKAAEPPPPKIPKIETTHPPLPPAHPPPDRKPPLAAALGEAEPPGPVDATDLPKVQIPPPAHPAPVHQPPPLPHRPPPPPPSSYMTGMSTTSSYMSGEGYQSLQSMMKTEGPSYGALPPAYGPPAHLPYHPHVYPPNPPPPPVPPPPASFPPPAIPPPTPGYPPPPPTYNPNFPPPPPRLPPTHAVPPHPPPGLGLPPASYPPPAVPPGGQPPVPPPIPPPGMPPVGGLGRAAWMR
Assay: CDK12 nuclear protein level: immunofluorescence/high content analysis (CAL-120)
Assay type: cell-based
Details: ratio of IC50 CDK12 high ATP kinase assay to DC50 CDK12 degradation (IF, CAL-120)
Measured Metric: (IC50 CDK12 high ATP) to (Degradation DC50 CDK12) ratio
Give only the figure.

Reference set (4 entries):
Mol Smiles: FC(F)(F)c1cccc(-c2nnc(CNc3nc(N4CCOCC4)nc4c(Br)cnn34)[nH]2)c1
Numeric Result: 80

Mol Smiles: CN1CCN(c2nc(NCc3nc4ccccc4[nH]3)n3ncc(C(F)(F)F)c3n2)CC1
Numeric Result: 2294

Mol Smiles: CN(c1nc(NCc2nc3ccccc3[nH]2)n2ncc(Br)c2n1)[C@H]1C[C@@H](O)C1
Numeric Result: 1751

Mol Smiles: O=S1(=O)CCN(c2nc(NCc3nc4ccccc4[nH]3)n3ncc(Br)c3n2)CC1
Numeric Result: 1800

Q: Return (IC50 CDK12 high ATP) to (Degradation DC50 CDK12) ratio measured with CDK12 (nuclear staining in CAL-120 cells) (Homo sapiens, UniProt Q9NYV4) given this compound: `FC(F)(F)c1ccc2[nH]c(CNc3nc(N4CCOCC4)nc4c(C5CC5)cnn34)nc2c1`
A: 266

Q: Return (IC50 CDK12 high ATP) to (Degradation DC50 CDK12) ratio measured with CDK12 (nuclear staining in CAL-120 cells) (Homo sapiens, UniProt Q9NYV4) given this compound: `CN(CC(C)(C)O)c1nc(NCc2nc3c(F)c(Cl)ccc3[nH]2)n2ncc(Br)c2n1`
A: 85

Q: Return (IC50 CDK12 high ATP) to (Degradation DC50 CDK12) ratio measured with CDK12 (nuclear staining in CAL-120 cells) (Homo sapiens, UniProt Q9NYV4) given this compound: `Fc1ccc2[nH]c(CNc3nc(N4CCOCC4)nc4c(CC(F)(F)F)cnn34)nc2c1`
A: 1297
